Numbers sourced from ChEMBL document CHEMBL4011606.

Listing: CC50 at 72 h of selected compounds
EXPERIMENTAL_DETAILS: Cytotoxicity against African green monkey Vero cells measured after 3 days by resazurin dye based fluorescence assay
Type: cell-based
CONDITION_DESCRIPTION: chlorocebus sabaeus

>>> measured_value("O=C(CCCc1cn(Cc2ccccc2)c2ccccc12)NC12CC3CC(CC(C3)C1)C2")
"> 250 µM"
>>> measured_value("O=C(CCCc1cn(Cc2ccc(F)cc2)c2ccccc12)NC12CC3CC(CC(C3)C1)C2")
"> 250 µM"
>>> measured_value("Cc1cc(S(=O)(=O)n2cc(CCCC(=O)NC34CC5CC(CC(C5)C3)C4)c3ccccc32)c(C)cc1Cl")
"> 250 µM"
>>> measured_value("O=C(CCCc1cn(CCN2CCOCC2)c2ccccc12)NC1CCCCCC1")
"> 250 µM"

For the next question, use this compound.
# get_value(readout='CC50 at 72 h', item= CCN(CC)CCCC(C)Nc1ccnc2cc(Cl)ccc12 (stereo not given) ) 226 µM
